Target: ATP-dependent translocase ABCB1 (Homo sapiens, UniProt P08183)
Sequence (P08183 whole entry): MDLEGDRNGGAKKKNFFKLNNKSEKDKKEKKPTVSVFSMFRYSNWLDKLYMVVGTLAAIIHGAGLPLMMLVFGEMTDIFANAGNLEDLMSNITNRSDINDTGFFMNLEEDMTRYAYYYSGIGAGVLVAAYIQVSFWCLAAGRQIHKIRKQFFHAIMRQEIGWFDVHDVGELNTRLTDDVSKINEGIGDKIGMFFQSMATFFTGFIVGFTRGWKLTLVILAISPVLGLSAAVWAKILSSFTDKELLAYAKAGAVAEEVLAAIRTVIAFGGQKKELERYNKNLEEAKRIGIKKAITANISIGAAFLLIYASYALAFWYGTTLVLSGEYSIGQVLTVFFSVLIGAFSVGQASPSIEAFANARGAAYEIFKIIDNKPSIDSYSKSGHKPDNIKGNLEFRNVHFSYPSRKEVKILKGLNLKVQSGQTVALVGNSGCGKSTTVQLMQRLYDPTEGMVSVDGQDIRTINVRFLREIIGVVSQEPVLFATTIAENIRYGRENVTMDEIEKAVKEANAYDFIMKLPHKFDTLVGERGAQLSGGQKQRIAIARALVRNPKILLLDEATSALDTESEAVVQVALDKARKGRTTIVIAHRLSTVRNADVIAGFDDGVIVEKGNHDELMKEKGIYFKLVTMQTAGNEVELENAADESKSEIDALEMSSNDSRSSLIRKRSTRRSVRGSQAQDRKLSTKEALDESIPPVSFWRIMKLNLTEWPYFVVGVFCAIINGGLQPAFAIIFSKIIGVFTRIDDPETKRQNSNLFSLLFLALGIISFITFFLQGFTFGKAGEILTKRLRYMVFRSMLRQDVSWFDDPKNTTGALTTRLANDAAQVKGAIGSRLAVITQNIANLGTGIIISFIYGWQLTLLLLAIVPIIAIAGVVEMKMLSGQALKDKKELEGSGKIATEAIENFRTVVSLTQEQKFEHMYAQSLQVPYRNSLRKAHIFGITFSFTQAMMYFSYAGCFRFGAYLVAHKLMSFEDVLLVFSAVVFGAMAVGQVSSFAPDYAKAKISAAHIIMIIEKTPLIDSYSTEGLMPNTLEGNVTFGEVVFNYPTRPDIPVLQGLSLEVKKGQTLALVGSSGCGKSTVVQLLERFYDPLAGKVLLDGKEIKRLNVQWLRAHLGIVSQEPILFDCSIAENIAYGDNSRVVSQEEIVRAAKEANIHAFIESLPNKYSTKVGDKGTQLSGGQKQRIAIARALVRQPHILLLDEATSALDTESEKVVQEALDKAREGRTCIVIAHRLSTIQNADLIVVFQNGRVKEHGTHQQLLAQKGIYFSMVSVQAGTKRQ
Experiment: Inhibition of human ABCB1 expressed in mouse L5178 cells assessed as potentiation of doxorubicin-induced cytotoxicity by measuring combination index at ED75 in presence of 20.4:1 ratio of doxorubicin to test compound after 48 hrs by MTT assay
Format: cell-based
So basically: CI at 0.2 or higher? That is T. Lower than 0.2? That is F.

Input line: Determine whether measured CI meets or exceeds 0.2 for `CC(C)(O)CC[C@@H]1OC(C)(C)O[C@]1(C)[C@H]1CC=C2C3=CC(=O)[C@@H]4C[C@H]5OC(C)(C)O[C@H]5C[C@]4(C)[C@H]3CC[C@@]21C`
Output line: T

Input line: # bool: CI of `CC(C)(F)CC[C@@H]1OC(C)(C)O[C@]1(C)[C@H]1CC=C2C3=CC(=O)[C@@H]4C[C@H]5OC(C)(C)O[C@H]5C[C@]4(C)[C@H]3CC[C@@]21C` >= 0.2
Output line: T

Input line: Please indicate if the recorded CI for `CC(C)(F)CC[C@@H]1OC(C)(C)O[C@]1(C)[C@H]1CC[C@@]2(O)C3=CC(=O)[C@@H]4C[C@H]5OC(C)(C)O[C@H]5C[C@]4(C)[C@H]3CC[C@]12C` meets or exceeds 0.2.
Output line: F

Input line: Check the entry `CC(C)(F)CC[C@@H]1OC(C)(C)O[C@]1(C)[C@H]1CC[C@@]2(F)C3=CC(=O)[C@@H]4C[C@H]5OC(C)(C)O[C@H]5C[C@]4(C)[C@H]3CC[C@]12C` : does CI equal or exceed 0.2?
Output line: F

Input line: Hello, I need to know if `CC(C)(O)CC[C@@H]1OC(C)(C)O[C@]1(C)[C@H]1CC[C@@]2(O)C3=CC(=O)[C@@H]4C[C@H]5OC(C)(C)O[C@H]5C[C@]4(C)[C@H]3CC[C@]12C` has measured CI not below 0.2. Thanks!
Output line: F
